biological target: fibroblast activation protein (FAP; rhFAP, SLIN-tagged hFAP) (Homo sapiens, UniProt Q12884); assay: biochemical; format: binding
pKi: −log10 of the molar value.
Lab note: anything with pKi at or over 6 counts as true; the rest go in false.

Reported pKi at or above 6? "CC(C)(C)C(=O)OCOC(=O)[C@@H]1N2C(=O)[C@@H](N=CN3CCCCCC3)[C@H]2SC1(C)C"
false

Okay, and "C=CC1=C(C)C2=Cc3c(C=C)c(C)c4[n]3[Fe]([Cl])[n]3c(c(C)c(CCC(=O)O)c3=CC3=NC(=C4)C(C)=C3CCC(=O)O)=CC1=N2" ?
true

Okay, and "O=C1OC2(c3cc(I)c(O)c(I)c3Oc3c2cc(I)c(O)c3I)c2c(Cl)c(Cl)c(Cl)c(Cl)c21" ?
true

Okay, and "C[C@@H](O)[C@H]1C(=O)N2C(C(=O)OCOC(=O)C(C)(C)C)=C(SC3CN(C4=NCCS4)C3)[C@H](C)[C@H]12" ?
true

----------
Molecular target: fibroblast activation protein (FAP; rhFAP, SLIN-tagged hFAP) (Homo sapiens, UniProt Q12884)
Sequence (Q12884 35-760): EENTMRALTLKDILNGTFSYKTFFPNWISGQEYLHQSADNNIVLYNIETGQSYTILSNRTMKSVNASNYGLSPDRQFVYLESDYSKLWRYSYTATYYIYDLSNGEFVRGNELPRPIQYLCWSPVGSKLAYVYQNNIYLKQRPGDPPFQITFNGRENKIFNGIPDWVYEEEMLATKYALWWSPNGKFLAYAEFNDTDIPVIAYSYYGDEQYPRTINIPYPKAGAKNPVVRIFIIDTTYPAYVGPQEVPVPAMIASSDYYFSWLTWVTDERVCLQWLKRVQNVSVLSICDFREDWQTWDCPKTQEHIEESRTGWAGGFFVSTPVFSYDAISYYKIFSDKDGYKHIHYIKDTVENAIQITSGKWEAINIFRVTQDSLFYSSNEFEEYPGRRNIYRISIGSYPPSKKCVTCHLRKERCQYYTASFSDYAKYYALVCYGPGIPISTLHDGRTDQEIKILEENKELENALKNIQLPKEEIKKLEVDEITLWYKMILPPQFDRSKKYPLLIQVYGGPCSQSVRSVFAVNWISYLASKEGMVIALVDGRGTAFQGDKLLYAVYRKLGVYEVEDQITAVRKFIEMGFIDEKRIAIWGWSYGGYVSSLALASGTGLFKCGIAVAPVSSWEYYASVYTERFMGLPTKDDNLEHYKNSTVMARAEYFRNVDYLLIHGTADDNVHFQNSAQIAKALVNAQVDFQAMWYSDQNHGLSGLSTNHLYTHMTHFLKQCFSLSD
Assay: biochemical
Structures can show the parent of a compound that is named as a salt.
Values of Ki strictly less than 20 µM map to Y, and values of at least 20 µM map to N.

# check: Ki < 20 µM for CCC(=O)O[C@@H](O[P@](=O)(CCCCc1ccccc1)CC(=O)N1C[C@H](C2CCCCC2)C[C@H]1C(=O)O)C(C)C [Fosinopril (sodium)]
Y

Okay, and COc1cc(NCc2ccc3nc(N)nc(N)c3c2C)cc(OC)c1OC [Trimetrexate] ?
N

Okay, and CCCc1nc(C)c2c(=O)[nH]c(-c3cc(S(=O)(=O)N4CCN(CC)CC4)ccc3OCC)nn12 [Vardenafil (hydrochloride)] ?
N

Okay, and "CC/C=C\C/C=C\C/C=C\C/C=C\C/C=C\CCCC(=O)O" ?
Y

Okay, and "CCCCc1nc(C)c(CC(=S)N(C)C)c(=O)n1Cc1ccc(-c2ccccc2-c2nnn[nH]2)cc1" ?
Y

Okay, and C=CC[N+]1([C@H]2C[C@H]3[C@@H]4CC[C@H]5C[C@H](OC(C)=O)[C@@H](N6CCCCC6)C[C@]5(C)[C@H]4CC[C@]3(C)[C@H]2OC(=O)CC)CCCCC1 [Rapacuronium bromide] ?
Y

----------
Answer each item with its documented Relative inhibition (%), activity assay.
target: fibroblast activation protein (FAP; rhFAP, SLIN-tagged hFAP) (Homo sapiens); conditions: 2 µM; inhibitor
Structures can show the parent of a compound that is named as a salt.
Give the quantity in %, number only.

# Relative inhibition (%), activity assay lookup, item CCCC(=O)OCOC(=O)C1=C(C)NC(C)=C(C(=O)OC)C1c1cccc(Cl)c1Cl (centres unmarked)
35

Okay, and "CCOc1nc2cccc(C(=O)OCc3oc(=O)oc3C)c2n1Cc1ccc(-c2ccccc2-c2noc(=O)[nH]2)cc1" ?
11

Okay, and C=Cc1c(C)c2cc3nc(c(CC(=O)N[C@@H](CC(=O)O)C(=O)O)c4[nH]c(cc5nc(cc1[nH]2)C(C)=C5CC)c(C)c4C(=O)O)[C@@H](CCC(=O)O)[C@@H]3C [Talaporfin (sodium)] ?
12

Okay, and "CCc1c(Cl)c(O)c(Cl)c(O)c1C(=O)O[C@H]1[C@H](O)[C@H](OC)[C@H](OC/C2=C\C=C\C[C@H](O)/C(C)=C/[C@H](CC)[C@@H](O[C@@H]3OC(C)(C)[C@@H](OC(=O)C(C)C)[C@H](O)[C@@H]3O)/C(C)=C/C(C)=C/C[C@@H]([C@@H](C)O)OC2=O)O[C@@H]1C" ?
10

Okay, and COc1cccc2c1C(=O)c1c(O)c3c(c(O)c1C2=O)C[C@@](O)(C(=O)CO)C[C@@H]3O[C@H]1C[C@H](N)[C@H](O[C@@H]2CCCCO2)[C@H](C)O1 [Pirarubicin (Hydrochloride)] ?
19

----------
target: fibroblast activation protein (FAP; rhFAP, SLIN-tagged hFAP) (Homo sapiens); assay: biochemical
Structures can show the parent of a compound that is named as a salt. Numbered stars: 1 amine (or outer) side, 2 acyl side, 3 side chain; on linkers, the order of the positions; unused ones are H or OH. Square brackets hold non-standard residues; d marks the D form. Side chains are listed from the residue outwards. Peptide text beside a SMILES is read from it. * marks the point of attachment. Ethylenediamine = C(CN[*:2])N[*:1]; Hyp = O=C(O)[C@@H]1C[C@@H](O)CN1; Phg = N[C@H](C(=O)O)c1ccccc1; CO = O=C([*:1])[*:2]; Bn = c1ccc(C*)cc1
Answer each item with its documented pKi.
Formally, pKi is defined as -log10 of the concentration c, with c in mol/L.

# pKi lookup, item Cc1c(-c2ccccc2)oc2c(C(=O)OCCN3CCCCC3)cccc2c1=O [Flavoxate (hydrochloride)]
4.47

Okay, and "Nc1c2ccccc2nc2ccccc12" ?
4.91

Okay, and "CC[C@@H]1C(=O)N(C)c2cnc(Nc3ccc(C(=O)N[C@H]4CC[C@H](N5CCN(CC6CC6)CC5)CC4)cc3OC)nc2N1C(C)C" ?
4.96

Okay, and NC(=NCc1ccccc1)NC(=O)c1nc(Cl)c(N)nc1N [Benzamil (hydrochloride)] ?
4.45

Okay, and CC[N+](C)(C)c1cccc(O)c1 [Edrophonium (chloride)] ?
4.45

Okay, and "CC(C)C[C@H](NC(=O)CNC(=O)c1cc(Cl)ccc1Cl)B(O)O" ?
4.48

Okay, and NCCCC[C@@H]1NC(=O)[C@@H](Cc2c[nH]c3ccccc23)NC(=O)[C@H](c2ccccc2)NC(=O)[C@@H]2C[C@@H](OC(=O)NCCN)CN2C(=O)[C@H](Cc2ccccc2)NC(=O)[C@H](Cc2ccc(OCc3ccccc3)cc2)NC1=O [Pasireotide (acetate)] (cyclo([Hyp]([CO-Ethylenediamine])[Phg][dW]KY(Bn)F)) ?
4.70

----------
Molecular target: fibroblast activation protein (FAP; rhFAP, SLIN-tagged hFAP) (Homo sapiens, UniProt Q12884)
Sequence (Q12884 35-760): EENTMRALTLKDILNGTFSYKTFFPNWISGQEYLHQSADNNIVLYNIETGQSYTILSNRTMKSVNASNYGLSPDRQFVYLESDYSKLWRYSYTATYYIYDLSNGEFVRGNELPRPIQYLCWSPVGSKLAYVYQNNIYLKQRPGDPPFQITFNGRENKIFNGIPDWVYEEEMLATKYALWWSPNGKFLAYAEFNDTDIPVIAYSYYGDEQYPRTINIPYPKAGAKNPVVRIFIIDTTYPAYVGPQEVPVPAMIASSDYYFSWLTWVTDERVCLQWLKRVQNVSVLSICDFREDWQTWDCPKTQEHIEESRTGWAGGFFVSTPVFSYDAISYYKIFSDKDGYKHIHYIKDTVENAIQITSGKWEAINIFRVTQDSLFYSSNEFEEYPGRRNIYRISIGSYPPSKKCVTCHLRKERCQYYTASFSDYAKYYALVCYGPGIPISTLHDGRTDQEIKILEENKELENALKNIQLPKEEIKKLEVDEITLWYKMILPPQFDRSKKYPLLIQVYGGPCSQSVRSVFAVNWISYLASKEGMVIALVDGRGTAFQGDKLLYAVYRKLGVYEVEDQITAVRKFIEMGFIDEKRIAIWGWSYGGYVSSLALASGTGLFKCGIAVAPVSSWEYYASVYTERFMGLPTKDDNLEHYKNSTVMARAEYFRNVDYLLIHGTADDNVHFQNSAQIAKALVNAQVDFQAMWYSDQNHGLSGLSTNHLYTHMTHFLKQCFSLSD
Assay: biochemical
Structures can show the parent of a compound that is named as a salt.
Answer each item with its documented pKi.
Formally, pKi is defined as -log10 of the concentration c, with c in mol/L.

# pKi lookup, item CC(C)(O/N=C(\C(=O)N[C@@H]1C(=O)N2C(C(=O)[O-])=C(C[n+]3ccccc3)CS[C@H]12)c1csc(N)n1)C(=O)O [Ceftazidime (pentahydrate)]
4.68

Okay, and Cc1oc(=O)oc1COC(=O)C1=C([C@H]2CCCO2)S[C@@H]2[C@@H]([C@@H](C)O)C(=O)N12 [Faropenem daloxate] ?
4.88

Okay, and "Cc1nnc(SCC2=C(C(=O)O)N3C(=O)[C@@H](NC(=O)Cn4cc(Cl)c(=O)c(Cl)c4)[C@H]3SC2)s1" ?
4.59

Okay, and "C=CCN1C[C@H](C(=O)N(CCCN(C)C)C(=O)NCC)C[C@@H]2c3cccc4[nH]cc(c34)C[C@H]21" ?
4.76

Okay, and O=C1c2c(O)ccc(O)c2C(=O)c2c(NCCNCCO)ccc(NCCNCCO)c21 [Mitoxantrone (dihydrochloride)] ?
4.94

Okay, and "CC(=O)OCC1=C(C(=O)O)N2C(=O)[C@@H](NC(=O)CSC(=NC(C)C)NC(C)C)[C@H]2SC1" ?
4.63

Okay, and "Cc1ccc(NC(=O)c2ccc(CN3CCN(C)CC3)cc2)cc1Nc1nc(-c2cccnc2)cs1" ?
4.36
